Catalogue of pIC50 readings, one per entry.
test_target: BRD4 BD2 (Homo sapiens, UniProt O60885)
assay_text: AlphaScreen binding assay, BRD4 Bromodomain 2
pIC50: −log10 of the molar value.
measured_attribute: pIC50

1) CC(=O)N1c2ccccc2N(S(=O)(=O)Cc2cccc(Cl)c2)C[C@@H]1C = < 6.30
2) CC(=O)N1c2ccc(-c3ccc(N4CCCC4=O)cc3)cc2N(C(=O)C2CC2)C[C@@H]1C = 6.30 to 7.30
3) CNC(=O)N1c2ccc(-c3ccc(S(C)(=O)=O)cc3)cc2N(C(=O)c2ccco2)C[C@@H]1C = 6.30 to 7.30
4) CC(=O)N1c2ccc(-c3cnn(C4CC4)c3)cc2N(C(=O)Oc2ccc(F)c(C)c2)C[C@@H]1C = > 7.30
5) CC(=O)N1c2ccc(-c3ccc(S(C)(=O)=O)cc3)cc2N(C(=O)OCC2CC2)C[C@@H]1C = < 6.30
6) CC(=O)N1c2ccc(-c3ccc(C(=O)N4CCNCC4)cc3)cc2N(C(=O)OC2CCOCC2)C[C@@H]1C = 6.30 to 7.30
7) CC(=O)N1c2ccc(-c3cnn(C4CC4)c3)cc2N(C(=O)OC2CCCC2)C[C@@H]1C = 6.30 to 7.30

* * *

test_target: BRD4 BD1 (Homo sapiens, UniProt O60885)
assay_text: AlphaScreen binding assay, BRD4 Bromodomain 1
pIC50: −log10 of the molar value.
measured_attribute: pIC50

1. CC(=O)N1c2ccc(-c3cnsc3)cc2N(C(=O)c2ccco2)C[C@@H]1C [Example I-432] = 6.00 to 7.00
2. CC(=O)N1c2ccccc2N(C(=O)C2CCCC2)C[C@@H]1C [Example I-714] = < 5.00
3. CC(=O)N1c2ccc(-c3cccc(-n4nc(C)cc4C)c3)cc2N(C(=O)c2ccco2)C[C@@H]1C [Example I-857] = 6.00 to 7.00
4. CC(=O)N1c2ccc(-c3ccc(S(N)(=O)=O)cc3)cc2N(C(=O)C2CC2)C[C@@H]1C [Example I-1066] = 5.00 to 6.00
5. CCS(=O)(=O)c1cccc(-c2ccc3c(c2)N(C(=O)OC(C)C)C[C@H](C)N3C(C)=O)c1 [Example I-1093] = 6.00 to 7.00
6. CC(=O)N1c2ccc(-c3cccc4c3cnn4C)cc2N(C(=O)c2ccco2)C[C@@H]1C [Example I-858] = 5.00 to 6.00
7. CC(=O)N1c2ccc(-c3cnn(CCO)c3)cc2N(c2nn(C)c3cccc(F)c23)C[C@@H]1C [Example I-190] = 6.00 to 7.00
8. CC(=O)N1c2ccc(-c3ccc(S(C)(=O)=O)cc3)cc2N(C(=O)c2ccccn2)C[C@@H]1C [Example I-782] = < 5.00
9. CC(=O)N1c2ccc(-c3ccc(S(=O)(=O)CC(C)C)cc3)cc2N(C(=O)OC2CCCCC2)C[C@@H]1C [Example I-1239] = 6.00 to 7.00
10. COc1ncc(Cl)cc1OC(=O)N1C[C@H](C)N(C(C)=O)c2ccc(-c3cnn(C4CC4)c3)cc21 [Example I-1207] = 6.00 to 7.00
11. CC(=O)N1c2ccc(-c3cnn(-c4ccccc4)c3)cc2N(C(=O)OC(C)C)C[C@@H]1C [Example I-334] = 5.00 to 6.00
12. CC(=O)N1c2ccc(-c3cccc(NS(C)(=O)=O)c3)cc2N(C(=O)OC2CCCCC2)C[C@@H]1C [Example I-1221] = 6.00 to 7.00
13. COC(=O)N1c2ccc(-c3ccc(C(=O)NCCN)cc3)cc2N(C(=O)C2CC2)C[C@@H]1C [Example I-463] = 5.00 to 6.00
14. CC(=O)N1c2ccc(-c3cccc(S(N)(=O)=O)c3)cc2N(C(=O)OC2CCOCC2)C[C@@H]1C [Example I-1220] = 6.00 to 7.00
15. CC(=O)N1c2ccc(-c3cnn(CC(=O)N4CCOCC4)c3)cc2N(C(=O)OC(C)C)C[C@@H]1C [Example I-654] = 6.00 to 7.00

Values compiled from patent US10703764B2.
